Biological target: hyaluronidase (Bos taurus, UniProt Q2YDK3)
Sequence (Q2YDK3 36-553): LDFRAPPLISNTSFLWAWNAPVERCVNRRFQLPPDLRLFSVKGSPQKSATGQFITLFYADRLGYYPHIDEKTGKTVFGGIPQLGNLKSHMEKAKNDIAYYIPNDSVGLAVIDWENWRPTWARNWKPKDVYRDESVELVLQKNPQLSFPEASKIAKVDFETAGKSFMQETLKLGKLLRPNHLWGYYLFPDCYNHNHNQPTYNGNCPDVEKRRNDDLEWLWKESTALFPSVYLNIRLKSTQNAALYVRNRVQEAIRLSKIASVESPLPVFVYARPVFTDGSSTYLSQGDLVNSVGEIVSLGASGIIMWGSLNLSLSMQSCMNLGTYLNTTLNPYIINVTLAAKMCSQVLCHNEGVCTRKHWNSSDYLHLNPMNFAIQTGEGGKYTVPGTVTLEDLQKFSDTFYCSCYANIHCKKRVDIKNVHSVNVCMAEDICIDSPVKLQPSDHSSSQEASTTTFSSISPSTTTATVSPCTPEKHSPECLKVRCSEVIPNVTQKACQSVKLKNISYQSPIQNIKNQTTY
Assay: Antihyaluronidase activity (modified Morgan-Elson method, activated by Compound 48/80 or CaCl2)
Conditions: hyaluronidase 340 NF unit/ml, 37° C.
Observable: pIC50
Bear in mind: pIC50 is minus log10 of a mol/L concentration; give just that figure.

GET /value?item= O=C(C=Cc1ccsc1)Nc1ccccc1C(=O)O [Compound 1, 2-[3-(3-thienyl)acrylamido]benzoic acid] &field=pIC50 returns 4.07

// recorded pIC50 for O=C(C=Cc1cccs1)Nc1ccccc1C(=O)O [Compound 2, 2-[3-(2-thienyl)acrylamido]benzoic acid] : 3.85

The measured pIC50 associated with O=C(C=Cc1ccco1)Nc1ccccc1C(=O)O [Compound 3, 2-[3-(2-furyl)acrylamido]benzoic acid] reads 3.80

// pIC50 value for Cn1cccc1C=CC(=O)Nc1ccccc1C(=O)O : 3.92

Memo: O=C(C=Cc1ccco1)Nc1cc(Cl)ccc1C(=O)O , reported pIC50: 3.59

The recorded pIC50 for O=C(C=Cc1ccco1)Nc1cc([N+](=O)[O-])ccc1C(=O)O is 3.52

###

Test: Acute toxicity
Conditions: mouse, in vivo; mice, Intravenous, one week
Observable: LD50 at 168 h (mg/kg)
Report the figure in mg/kg without appending any unit label.

* O=C(C=Cc1cccs1)Nc1ccccc1C(=O)O [Compound 2, 2-[3-(2-thienyl)acrylamido]benzoic acid] | 277

Lab book: LD50 at 168 h of O=C(C=Cc1ccsc1)Nc1ccccc1C(=O)O [Compound 1, 2-[3-(3-thienyl)acrylamido]benzoic acid] noted as 438

###

Test: Acute toxicity
Conditions: mouse, in vivo; mice, PO, one week
Observable: LD50 at 168 h (mg/kg)
I only need the number, in mg/kg, no unit after it.

* O=C(C=Cc1ccsc1)Nc1ccccc1C(=O)O [Compound 1, 2-[3-(3-thienyl)acrylamido]benzoic acid] | 615

Here's the next entry for you.
Entry O=C(C=Cc1cccs1)Nc1ccccc1C(=O)O [Compound 2, 2-[3-(2-thienyl)acrylamido]benzoic acid] — recorded LD50 at 168 h = 400

###

Tested on: peritoneal mast cell
Experiment: Inhibition of histamine release from mast cell in abdominal cavity of rats by antigen-antibody reaction
Assay type: cell-based, rat
Conditions: Rattus norvegicus, Mast cell, 20 min; 10^-4 M; DNP-Ascaris 20 microgramms/ml; read-out: Amount of histamine released from peritoneal mast cell (Control=100)
Method: Examination was made on the activity of inhibition of histamine release from mast cell by antigen-antibody reaction. Swine ascaris extract solution was dinitrophenylated according to Aisen's method, dialysed, and lyophilized. […] Heparin-containing PBS was injected intraperitoneally to rat which was sacrificed by exsanguination, after which the abdomen was well massaged. […] The number of the mast cells contained in the solution was determined and adjusted to the designed concentration. […]
Observable: activity at 100 µM (%)
Give the value, in units of %, as a plain number.

// below: answered compounds
• COc1ccc(/C=C/C(=O)Nc2ccccc2C(=O)O)cc1OC [Tranilast, reference compound] = 67
• O=C(C=Cc1ccco1)Nc1ccccc1C(=O)O [Compound 3, 2-[3-(2-furyl)acrylamido]benzoic acid] = 36
• O=C(C=Cc1ccsc1)Nc1ccccc1C(=O)O [Compound 1, 2-[3-(3-thienyl)acrylamido]benzoic acid] = 11

Consider now this further compound.
compound O=C(C=Cc1cccs1)Nc1ccccc1C(=O)O [Compound 2, 2-[3-(2-thienyl)acrylamido]benzoic acid] , activity at 100 µM observed: -70

Hello, the source for this data is patent US5006548A, in case you need it.
